Cited source: ChEMBL document CHEMBL4265872

procedure_text: Drug accumulation in human NCI-H292 cells at 3 to 10 uM incubated for 3 hrs by LC-MS analysis relative to azithromycin
Type: ADME, cell-based
assay_conditions: nci-h292, 3 h
measurement_label: Drug uptake (%)

(A) CC[C@H]1OC(=O)[C@H](C)[C@@H](O[C@H]2C[C@@](C)(OC)[C@@H](O)[C@H](C)O2)[C@H](C)[C@@H](O[C@@H]2O[C@H](C)C[C@H](N(C)C)[C@H]2O)[C@](C)(OC)C[C@@H](C)C(=O)N[C@H](C)[C@@H](O)[C@]1(C)O
(B) CCCCC(=O)NCCCN1C[C@H](C)C[C@@](C)(O)[C@H](O[C@@H]2O[C@H](C)C[C@H](N(C)C)[C@H]2O)[C@@H](C)[C@H](O[C@H]2C[C@@](C)(OC)[C@@H](O)[C@H](C)O2)[C@@H](C)C(=O)O[C@H](CC)[C@@](C)(O)[C@H](O)[C@H]1C
(C) CC[C@H]1OC(=O)[C@H](C)[C@@H](O[C@H]2C[C@@](C)(OC)[C@@H](O)[C@H](C)O2)[C@H](C)[C@@H](O[C@@H]2O[C@H](C)C[C@H](N(C)C)[C@H]2O)[C@](C)(O)C[C@@H](C)CN(C)[C@H](C)[C@@H](OCCCNC(=O)C2CCC2)[C@]1(C)O
(D) CCCCCCCC(=O)NCCCN(C)[C@H]1C[C@@H](C)O[C@@H](O[C@@H]2[C@@H](C)[C@H](O[C@H]3C[C@@](C)(OC)[C@@H](O)[C@H](C)O3)[C@@H](C)C(=O)O[C@H](CC)[C@@](C)(O)[C@H](O)[C@@H](C)C(=O)[C@H](C)C[C@@]2(C)OC)[C@@H]1O
Enquiry: // ascending sort on recorded Drug uptake Lab note: final answer is the ordered label list.
Return: B, A, C, D

----------
procedure_text: Drug accumulation in human NCI-H292 cells at 3 to 10 uM incubated for 3 hrs by LC-MS analysis relative to azithromycin
Assay type: ADME, cell-based
assay_conditions: nci-h292, 3 h
measurement_label: Drug uptake (%)

Known results for compounds:
INSERT INTO measurements (compound, reported) VALUES
  ('CCCCCCCC(=O)NCCCN1C[C@H](C)C[C@@](C)(O)[C@H](O[C@@H]2O[C@H](C)C[C@H](N(C)C)[C@H]2O)[C@@H](C)[C@H](O[C@H]2C[C@@](C)(OC)[C@@H](O)[C@H](C)O2)[C@@H](C)C(=O)O[C@H](CC)[C@@](C)(O)[C@H](O)[C@H]1C', 207),
  ('CC[C@H]1OC(=O)[C@H](C)[C@@H](O[C@H]2C[C@@](C)(OC)[C@@H](O)[C@H](C)O2)[C@H](C)[C@@H](O[C@@H]2O[C@H](C)C[C@H](N(C)CCCNC(C)=O)[C@H]2O)[C@](C)(O)C[C@@H](C)CN(C)[C@H](C)[C@@H](O)[C@]1(C)O', 5);

(A) CC[C@H]1OC(=O)[C@H](C)[C@@H](O[C@H]2C[C@@](C)(OC)[C@@H](O)[C@H](C)O2)[C@H](C)[C@@H](O[C@@H]2O[C@H](C)C[C@H](N(C)C)[C@H]2O)[C@](C)(OC)C[C@@H](C)C(=O)[C@H](C)[C@@H](O)[C@]1(C)O
(B) CCC(=O)NCCCO[C@H]1[C@H](C)O[C@@H](O[C@H]2[C@H](C)[C@@H](O[C@@H]3O[C@H](C)C[C@H](N(C)C)[C@H]3O)[C@](C)(O)C[C@@H](C)CN(C)[C@H](C)[C@@H](O)[C@](C)(O)[C@@H](CC)OC(=O)[C@@H]2C)C[C@@]1(C)OC
Enquiry: Response body: label of entry with the larger Drug uptake; valid values A , B . Choose, then provide that item's label.
Return: A
